Target: T1, OmpR (Escherichia coli, UniProt P0AA16 1-239)
T1 sequence: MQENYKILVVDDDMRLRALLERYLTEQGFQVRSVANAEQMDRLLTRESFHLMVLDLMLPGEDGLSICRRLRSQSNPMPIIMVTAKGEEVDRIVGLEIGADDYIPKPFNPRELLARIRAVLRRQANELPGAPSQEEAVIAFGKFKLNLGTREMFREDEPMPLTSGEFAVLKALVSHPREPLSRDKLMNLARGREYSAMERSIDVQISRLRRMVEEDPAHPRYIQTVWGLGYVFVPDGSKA
Assay: ITC
experimental.readout: pKd
// returns pKd (minus log10 of molar concentration), number only

F1 (dsDNA) DNA 1: GCTTTACTTTTGGTTACATATTTCG DNA 2: CGAAATATGTAACCAAAAGTAAAGC has a reported pKd of 5.70
